- Tested on: Fer (mouse);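 note: 11-residue human phosphosite peptides and single-mutation variants displayed on the E. coli surface, counted by deep sequencing, each peptide's frequency after selection divided by its frequency in the unselected input library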;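 note: frequency after pTyr selection over input frequency; kinase dosed for 20-30% of maximal phosphorylation in three min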
- ASSAY_COMMENT: phosphorylation enrichment, bacterial display (enrichment ratio); higher = better substrate or ligand; peptides without Tyr show the background
Below is a list of entries, each paired with its recorded phosphorylation enrichment value.
METRIC_NAME: phosphorylation enrichment

[[record]]
macromolecule_sequence = "SLQFEYVHYGG [CDC14A_Y591_S589F]"
experimental_value = 0.481

[[record]]
macromolecule_sequence = "VHLFAYDWISI [BEST1_Y227_G222V_YF]"
experimental_value = 10.4

[[record]]
macromolecule_sequence = "SEQNNYSRVAN [CWC22_Y797_R794Q]"
experimental_value = 0.497

[[record]]
macromolecule_sequence = "SIKNKYVTALF [KCNH2_Y611_D609N_YF]"
experimental_value = 0.371

[[record]]
macromolecule_sequence = "IVRSLYKDLED [VHL_Y185_E186K]"
experimental_value = 0.688

[[record]]
macromolecule_sequence = "RFMVGYEMLAQ [GALT_Y339_K334R]"
experimental_value = 0.677

[[record]]
macromolecule_sequence = "EPFELYCEMGS [CBL_Y371_Q367P_YF]"
experimental_value = 0.749

[[record]]
macromolecule_sequence = "STKELYEKYMI"
experimental_value = 5.61

[[record]]
macromolecule_sequence = "RSSKMYFKTRS [LPL_Y329_L330F]"
experimental_value = 0.764

[[record]]
macromolecule_sequence = "YMLYQYLKQIE [RPAP3_Y569_D564Y]"
experimental_value = 6.78

[[record]]
macromolecule_sequence = "VNYGAYINDFK [GLB1_Y488]"
experimental_value = 0.402

[[record]]
macromolecule_sequence = "WNDLDYMDSRR [GAA_Y407]"
experimental_value = 0.427

[[record]]
macromolecule_sequence = "LTDLRYKVSGL"
experimental_value = 0.404

[[record]]
macromolecule_sequence = "DMLFQYLKQIE [RPAP3_Y569_YF]"
experimental_value = 0.462

[[record]]
macromolecule_sequence = "PELINYQQHNS [BTK_Y361_H362Q]"
experimental_value = 0.742

[[record]]
macromolecule_sequence = "FADIAYIYRHG [PAH_Y166_N167I]"
experimental_value = 0.486

[[record]]
macromolecule_sequence = "LRAGVYREKDQ [DNM2_Y626_P627R]"
experimental_value = 0.349

[[record]]
macromolecule_sequence = "HNLPIYEGYAL [ACTA1_Y168_V165L]"
experimental_value = 19.3

[[record]]
macromolecule_sequence = "CVAARYMDMKG [WFIKKN2_Y93_V96M]"
experimental_value = 0.431

[[record]]
macromolecule_sequence = "VCDSNYSASRW [LRP5_Y1552_D1551N]"
experimental_value = 0.513

[[record]]
macromolecule_sequence = "KNNDGYIDFAE [MCFD2_Y135_YF]"
experimental_value = 0.559

[[record]]
macromolecule_sequence = "VLALWYFFLTH [ZDHHC23_Y127_YF]"
experimental_value = 0.644

[[record]]
macromolecule_sequence = "VNYGAYINNFK [GLB1_Y488_D491N]"
experimental_value = 0.423

[[record]]
macromolecule_sequence = "IIGNGYFFRVF [MYBPC3_Y1135_YF]"
experimental_value = 0.394

[[record]]
macromolecule_sequence = "PQIVKYRPDCI [LDHB_Y128_S129R]"
experimental_value = 0.12

[[record]]
macromolecule_sequence = "MEYAKYGSLRG [RET_Y809_V804M]"
experimental_value = 0.431

[[record]]
macromolecule_sequence = "QAINEYEKWLE [MAP9_Y603]"
experimental_value = 0.961

[[record]]
macromolecule_sequence = "VASSLYDILAR [GLB1_Y294]"
experimental_value = 1.96

[[record]]
macromolecule_sequence = "DGMADYSDPSF [CDC5L_Y459_YF]"
experimental_value = 0.592

